Listing of recorded AUC(0-inf) by entry.
- TEST PROTOCOL: Balb/C mouse pharmacokinetics (plasma, colon, ileum)
- Format: in vivo
- CONDITIONS: male, po, Balb/C mice, p.o. 5 mg/kg, ileum, read-out: Curve area AUC0-∞
- Description: […] The main pharmacokinetic parameters were calculated with WinNonlin 6.1, and the results of mouse pharmacokinetic experiments are shown in Table 3: […]

RECORD SMILES | AUC(0-inf) / ng·h/mL
Cc1cc(Nc2nc(N[C@@H]3C[C@H]4CC[C@@H](C3)N4S(=O)(=O)N3CC(C#N)C3)nc3sccc23)n[nH]1 | 15400
Cc1cc(Nc2nc(N[C@@H]3C[C@H]4CCC[C@@H](C3)N4C(=O)c3ccccn3)nc3sccc23)n[nH]1 | 18700
Cc1cc(Nc2nc(N[C@@H]3C[C@H]4CC[C@@H](C3)N4C(=O)CN3CCOCC3)nc3sccc23)n[nH]1 | 22600
Cc1cnc(Nc2cc3ncccc3c(N[C@@H]3C[C@H]4CC[C@@H](C3)N4CCC#N)n2)s1 | 93700
Cc1cc(Nc2nc(N[C@@H]3C[C@H]4CCC[C@@H](C3)N4C(=O)CN3CCOCC3)nc3sccc23)n[nH]1 | 28400
Cc1cc(Nc2nc(N[C@@H]3C[C@@H]4CN(CCC#N)C[C@@H]4C3)nc3ccsc23)n[nH]1 | 1350
Cc1cc(Nc2nc(N(C)[C@@H]3C[C@H]4CCC[C@@H](C3)N4C(=O)CN3CCN(C)CC3)nc3sccc23)n[nH]1 | 123000

* * *

- TEST PROTOCOL: Balb/C mouse pharmacokinetics (plasma, colon, ileum)
- Format: in vivo
- CONDITIONS: male, po, Balb/C mice, p.o. 5 mg/kg, colon, read-out: Half life period t1/2 (converted)
- Protocol: […] The main pharmacokinetic parameters were calculated with WinNonlin 6.1, and the results of mouse pharmacokinetic experiments are shown in Table 3: […]

COMPOUND | half-life (h)
Cc1cc(Nc2nc(N[C@@H]3C[C@H]4CC[C@@H](C3)N4S(=O)(=O)N3CC(C#N)C3)nc3sccc23)n[nH]1 [Embodiment 237] | 1.52
Cc1cc(Nc2nc(N[C@@H]3C[C@H]4CCC[C@@H](C3)N4C(=O)c3ccncc3)nc3sccc23)n[nH]1 [Embodiment 262] | 1.69
Cc1cc(Nc2nc(N[C@@H]3C[C@H]4CC[C@@H](C3)N4CCC#N)nc3cc(-c4cccnc4)ccc23)n[nH]1 [Embodiment 179] | 1.49
Cc1cc(Nc2nc(N[C@@H]3C[C@H]4CCC[C@@H](C3)N4S(=O)(=O)N3CC(C#N)C3)nc3sccc23)n[nH]1 [Embodiment 238] | 2.89

* * *

In this section we review reported AUC(0-t) values for a set of compounds.
- TEST PROTOCOL: Balb/C mouse pharmacokinetics (plasma, colon, ileum)
- Type: in vivo
- CONDITIONS: male, po, Balb/C mice, p.o. 5 mg/kg, colon, read-out: Curve area AUC0-t
ASSAY METRIC: AUC(0-t) (ng·h/mL)

RECORD SMILES | READING UNIT | OBSERVED VALUE
Cc1cc(Nc2nc(N[C@@H]3C[C@H]4CCC[C@@H](C3)N4C(=O)CN3CCOCC3)nc3sccc23)n[nH]1 | ng·h/mL | 13800
Cc1cc(Nc2nc(N[C@@H]3C[C@H]4CCC[C@@H](C3)N4C(=O)c3ccncc3)nc3sccc23)n[nH]1 | ng·h/mL | 3940
Cc1cc(Nc2nc(NC3CCN(CCC#N)CC3)nc3sccc23)n[nH]1 | ng·h/mL | 4240
Cc1cc(Nc2nc(N[C@@H]3C[C@H]4CCC[C@@H](C3)N4S(=O)(=O)N3CC(C#N)C3)nc3sccc23)n[nH]1 | ng·h/mL | 5270
Cc1cc(Nc2nc(N[C@@H]3C[C@H]4CC[C@@H](C3)N4CCC#N)nc3sc(C)cc23)n[nH]1 | ng·h/mL | 2890
Cc1cc(Nc2nc(N(C)[C@@H]3C[C@H]4CCC[C@@H](C3)N4C(=O)CN3CCN(C)CC3)nc3sccc23)n[nH]1 | ng·h/mL | 12300
Cc1cc(Nc2nc(N[C@@H]3C[C@H]4CC[C@@H](C3)N4S(=O)(=O)N3CC(C#N)C3)nc3sccc23)n[nH]1 | ng·h/mL | 6460
Cc1cc(Nc2nc(N[C@@H]3C[C@H]4CC[C@@H](C3)N4S(=O)(=O)N3CC(C#N)C3)nc3ccccc23)n[nH]1 | ng·h/mL | 4930
Cc1cc(Nc2nc(N[C@@H]3C[C@H]4CCC[C@@H](C3)N4C(=O)c3nccn3C)nc3sccc23)n[nH]1 | ng·h/mL | 15500
Cc1cc(Nc2nc(N[C@@H]3C[C@H]4CCC[C@@H](C3)N4CCC#N)nc3scnc23)n[nH]1 | ng·h/mL | 4640
Cc1cc(Nc2nc(N[C@@H]3C[C@H]4CC[C@@H](C3)N4CCC#N)nc3c2cnn3C)n[nH]1 | ng·h/mL | 3390
CNCC(=O)N1[C@@H]2CCC[C@H]1C[C@H](Nc1nc(Nc3cc(C)[nH]n3)c3ccsc3n1)C2 | ng·h/mL | 10200
COc1ccc2c(Nc3cc(C)[nH]n3)nc(N[C@@H]3C[C@H]4CC[C@@H](C3)N4CCC#N)nc2c1 | ng·h/mL | 23200
Cc1cc(Nc2nc(N[C@@H]3C[C@H]4CC[C@@H](C3)N4C(=O)CN3CCOCC3)nc3sccc23)n[nH]1 | ng·h/mL | 4900
